EXPERIMENTAL_SYSTEM: endothelin A (ETA) receptors (Sus scrofa, UniProt Q29010)
Construct: A membrane fraction prepared from swine ventricular muscle; from tissue; host or cells: swine ventricular muscle membrane fraction
Sequence (Q29010 21-427): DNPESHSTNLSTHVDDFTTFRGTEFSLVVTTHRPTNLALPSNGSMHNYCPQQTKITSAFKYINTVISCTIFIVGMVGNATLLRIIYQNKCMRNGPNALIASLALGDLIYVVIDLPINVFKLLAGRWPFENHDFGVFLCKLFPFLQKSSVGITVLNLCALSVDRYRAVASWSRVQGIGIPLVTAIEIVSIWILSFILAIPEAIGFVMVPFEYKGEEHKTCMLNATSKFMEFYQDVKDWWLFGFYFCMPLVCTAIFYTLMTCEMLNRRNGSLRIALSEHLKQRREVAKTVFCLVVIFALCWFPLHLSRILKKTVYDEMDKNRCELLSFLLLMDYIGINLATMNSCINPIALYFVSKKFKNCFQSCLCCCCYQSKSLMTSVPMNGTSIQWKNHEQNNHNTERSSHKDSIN
ASSAY: Determination of ETA receptor binding activity ([125I]ET-1, swine ventricular muscle membrane fraction)
MEASUREMENT_CONDITIONS: [125I]ET-1 binding, 25° C., 1 hour
Where a SMILES comes first, the peptide text is derived from it. [ ]: non-standard residue; d: D form. The star is where a group is joined. Piperazinyl(4-(2-MeOPh)) = COc1ccccc1N1CCN(*)CC1; Piperazinyl(4-Ph) = c1ccc(N2CCN(*)CC2)cc1; dGly(2-thienyl) = N[C@@H](C(=O)O)c1cccs1; d(tBuAla) = CC(C)(C)C[C@@H](N)C(=O)O
MEASURED_PROPERTY: IC50 (nM)
API: value field is a number in nM; no unit string.

Recall and state the measured IC50 for CC(C)C[C@@H]1NC(=O)[C@@H](c2cccs2)NC(=O)[C@H](CC(=O)O)NC(=O)[C@H](CC(=O)N2CCN(c3ccccc3)CC2)NC(=O)[C@@H](CC(=O)O)NC(=O)[C@@H](Cc2c[nH]c3ccccc23)NC1=O [Reference Example 1, reference compound] (cyclo(D(Piperazinyl(4-Ph))D[dGly(2-thienyl)]L[dW][dD])) .
0.08

Specify reported IC50 for the compound shown: COc1ccccc1N1CCN(C(=O)C[C@@H]2NC(=O)[C@@H](CC(=O)O)NC(=O)[C@@H](Cc3c[nH]c4ccccc34)NC(=O)[C@H](CC(C)C)NC(=O)[C@@H](CC(C)(C)C)NC(=O)[C@H](CC(=O)O)NC2=O)CC1 [Example 1] (cyclo(D(Piperazinyl(4-(2-MeOPh)))D[d(tBuAla)]L[dW][dD]))
0.18

Tell me IC50 reported for CC(C)C[C@@H]1NC(=O)[C@@H](CC(C)(C)C)NC(=O)[C@H](CC(=O)O)NC(=O)[C@H](CC(=O)N2CCN(c3ccccc3)CC2)NC(=O)[C@@H](CC(=O)O)NC(=O)[C@@H](Cc2c[nH]c3ccccc23)NC1=O [Example 2] (cyclo(D(Piperazinyl(4-Ph))D[d(tBuAla)]L[dW][dD]))
0.18

For the next question, use this compound.
Quickly give me recorded IC50 for COc1ccccc1N1CCN(C(=O)C[C@@H]2NC(=O)[C@@H](CC(=O)O)NC(=O)[C@@H](Cc3cn(C(C)=O)c4ccccc34)NC(=O)[C@H](CC(C)C)NC(=O)[C@@H](CC(C)(C)C)NC(=O)[C@H](CC(=O)O)NC2=O)CC1 [Example 3] (cyclo(D(Piperazinyl(4-(2-MeOPh)))D[d(tBuAla)]L[dW](Ac)[dD]))
0.49
